Where a SMILES comes first, the peptide text is derived from it. [ ]: non-standard residue; d: D form. The star is where a group is joined. Tyr(3-NO2) = N[C@@H](Cc1ccc(O)c([N+](=O)[O-])c1)C(=O)O; Phe(4-NO2) = N[C@@H](Cc1ccc([N+](=O)[O-])cc1)C(=O)O; Phe(4-NH2) = Nc1ccc(C[C@H](N)C(=O)O)cc1; 4Abz = Nc1ccc(C(=O)O)cc1; Propionyl = CCC(=O)*; Bz = O=C(c1ccccc1)*; ClAc = O=C(CCl)*
metric: melting point

## Task Provide measured melting point value, entry: O=C(N[C@@H](Cc1ccccc1)C(=O)N[C@H](CO)Cc1ccccc1)c1ccc(CN2CCOCC2)cc1 [Example 51]
## Result 183 to 184.5 °C

## Task Provide measured melting point value, entry: COC(=O)[C@H](Cc1ccccc1)NC(=O)[C@H](Cc1ccc([N+](=O)[O-])cc1)NC(=O)c1ccccc1 [Example 12] (Bz-[Phe(4-NO2)]-Phe-OMe)
## Result 202 to 204.5 °C

## Task Provide measured melting point value, entry: COC(=O)[C@H](Cc1ccc(N)cc1)NC(=O)[C@H](Cc1ccccc1)NC(=O)c1ccccc1.Cl [Example 58] (Bz-Phe-[Phe(4-NH2)]-OMe)
## Result 173 to 175 °C

## Task Provide measured melting point value, entry: COC(=O)[C@H](Cc1ccccc1)NC(=O)[C@H](Cc1ccc(O)cc1)NCc1ccncc1
## Result 206.5 to 209 °C

## Task Provide measured melting point value, entry: COC(=O)[C@H](Cc1ccc(NC(C)=O)cc1)NC(=O)[C@H](Cc1ccccc1)NC(=O)c1ccc(C)cc1
## Result 221.5 to 222 °C

## Task Provide measured melting point value, entry: O=C(N[C@@H](Cc1ccccc1)C(=O)N[C@H](CO)Cc1ccccc1)c1ccc(CN2CCCC2)cc1 [Example 50]
## Result 164 to 165 °C

## Task Provide measured melting point value, entry: COC(=O)[C@H](Cc1ccccc1)NC(=O)[C@H](Cc1ccccc1)NC(=O)c1ccc(NC(C)=O)cc1 (Ac-[4Abz]-Phe-Phe-OMe)
## Result 208 to 209.5 °C

## Task Provide measured melting point value, entry: CCCCOc1ccc(C[C@H](NC(=O)[C@H](Cc2ccccc2)NC(=O)c2ccccc2)C(=O)OC)cc1 [Example 72]
## Result 177 to 178 °C

## Task Provide measured melting point value, entry: COC(=O)[C@H](Cc1ccccc1)NC(=O)[C@H](Cc1ccccc1)NC(=O)c1ccc(NC(=O)CCl)cc1 ({ClAc-4Abz}-Phe-Phe-OMe)
## Result 222.5 to 224.5 °C

## Task Provide measured melting point value, entry: Cc1cccc(C(=O)N[C@@H](Cc2ccccc2)C(=O)N[C@H](CO)Cc2ccccc2)c1 [Example 05]
## Result 177 to 178.5 °C

## Task Provide measured melting point value, entry: O=C(N[C@@H](Cc1ccc(O)cc1)C(=O)N[C@H](CO)Cc1ccccc1)c1ccccc1 [Example 21, N-(N-benzoyl-L-tyrosyl)-L-phenylalaninol]
## Result 216 to 217.5 °C

## Task Provide measured melting point value, entry: COC(=O)[C@H](Cc1ccccc1)NC(=O)[C@H](Cc1ccc(O)c([N+](=O)[O-])c1)NC(=O)c1ccccc1 (Bz-[Tyr(3-NO2)]-Phe-OMe)
## Result 201 to 202.5 °C

## Task Provide measured melting point value, entry: O=C(N[C@@H](Cc1ccccc1)C(=O)N[C@H](CO)Cc1ccc([N+](=O)[O-])cc1)c1ccccc1 [Example 16]
## Result 192 to 195 °C

## Task Provide measured melting point value, entry: COC(=O)[C@H](Cc1ccccc1)NC(=O)[C@H](Cc1ccc(O)cc1)NC(=O)c1ccc(NC(C)=O)cc1 (Ac-[4Abz]-Tyr-Phe-OMe)
## Result 225 to 226 °C

## Task Provide measured melting point value, entry: CC(=O)Nc1ccc(C[C@H](NC(=O)c2ccccc2)C(=O)N[C@@H](Cc2ccccc2)C(=O)O)cc1 [Example 87] (Bz-[Phe(4-NH2)](Ac)-Phe-OH)
## Result 233.5 to 235.5 °C

## Task Provide measured melting point value, entry: O=C(N[C@@H](Cc1ccccc1)C(=O)N[C@H](CO)Cc1ccccc1)c1ccc(O)cc1 [Example 27]
## Result 223 to 225 °C

## Task Provide measured melting point value, entry: COC(=O)[C@H](Cc1ccccc1)NC(=O)[C@H](Cc1ccccc1)NCc1ccncc1
## Result 174 to 175 °C

## Task Provide measured melting point value, entry: COC(=O)[C@H](Cc1ccc([N+](=O)[O-])cc1)NC(=O)[C@H](Cc1ccccc1)NCc1ccncc1
## Result 224.5 to 225.5 °C

## Task Provide measured melting point value, entry: O=C(N[C@@H](Cc1ccc([N+](=O)[O-])cc1)C(=O)N[C@H](CO)Cc1ccccc1)c1ccccc1 [Example 06]
## Result 196 to 199 °C

## Task Provide measured melting point value, entry: COC(=O)[C@H](Cc1ccc([N+](=O)[O-])cc1)NC(=O)[C@H](Cc1ccc([N+](=O)[O-])cc1)NC(=O)c1ccccc1 [Example 15] (Bz-[Phe(4-NO2)]-[Phe(4-NO2)]-OMe)
## Result 220 to 221.5 °C

## Task Provide measured melting point value, entry: COC(=O)[C@H](Cc1ccccc1)NC(=O)[C@H](Cc1ccccc1)NC(=O)c1cccc(C)c1 [Example 09]
## Result 190 to 192 °C

## Task Provide measured melting point value, entry: COC(=O)[C@H](Cc1ccccc1)NC(=O)[C@H](Cc1ccccc1)NC(=O)c1ccc(O)cc1
## Result 151 to 153 °C

## Task Provide measured melting point value, entry: COC(=O)[C@H](Cc1ccc(O)cc1)NC(=O)[C@H](Cc1ccc([N+](=O)[O-])cc1)NC(=O)c1ccccc1 [Example 14] (Bz-[Phe(4-NO2)]-Tyr-OMe)
## Result 200 to 202 °C

## Task Provide measured melting point value, entry: CC(=O)Nc1ccc(C(=O)N[C@@H](Cc2ccccc2)C(=O)N[C@H](CO)Cc2ccccc2)cc1 [Example 39]
## Result 193 to 195 °C

## Task Provide measured melting point value, entry: COC(=O)[C@H](Cc1ccc(O)cc1)NC(=O)[C@H](Cc1ccc([N+](=O)[O-])cc1)NC(=O)c1ccc(C)cc1 [Example 18]
## Result 213 to 215 °C

## Task Provide measured melting point value, entry: CCC(=O)Nc1ccc(C(=O)N[C@@H](Cc2ccccc2)C(=O)N[C@@H](Cc2ccccc2)C(=O)OC)cc1 [Example 37] ({Propionyl-4Abz}-Phe-Phe-OMe)
## Result 225 to 227 °C

## Task Provide measured melting point value, entry: Cc1ccc(C(=O)N[C@@H](Cc2ccccc2)C(=O)N[C@H](CO)Cc2ccccc2)cc1 [Example 13]
## Result 200 to 202 °C

###

# Tested on: 2.2.15 cells
# measurement.notes: Cytotoxicity (TC50, median toxic concentration) in 2.2.15 cells
# Type: cell-based
Where a SMILES comes first, the peptide text is derived from it. [ ]: non-standard residue; d: D form. The star is where a group is joined. Phe(4-NH2) = Nc1ccc(C[C@H](N)C(=O)O)cc1; 4Abz = Nc1ccc(C(=O)O)cc1; Propionyl = CCC(=O)*; Bz = O=C(c1ccccc1)*
Binary label based on TC50 with cut-off 200 µg/mL: below gives 1, not below gives -1.

## Task Hello, I'm reviewing records and need to know if TC50 of CN(C)CCOc1ccc(C[C@H](NC(=O)c2ccccc2)C(=O)N[C@H](CO)Cc2ccccc2)cc1.Cl [Example 75] is below 200 µg/mL. Could you check?
## Result -1

## Task Hello, I'm reviewing records and need to know if TC50 of COC(=O)[C@H](Cc1ccc(O)cc1)NC(=O)[C@H](Cc1ccccc1)NC(=O)c1ccc(C)cc1 [Example 17] is below 200 µg/mL. Could you check?
## Result -1

## Task Hello, I'm reviewing records and need to know if TC50 of CC(=O)Nc1ccc(C[C@H](NC(=O)c2ccccc2C(=O)[O-])C(=O)N[C@H](CO)Cc2ccccc2)cc1.[Na+] [Example 53] is below 200 µg/mL. Could you check?
## Result -1

## Task Hello, I'm reviewing records and need to know if TC50 of CC(=O)c1ccc(C[C@@H](CO)NC(=O)[C@H](Cc2ccccc2)NC(=O)c2ccccc2)cc1 [Example 69] is below 200 µg/mL. Could you check?
## Result 1

## Task Hello, I'm reviewing records and need to know if TC50 of CN(C)CCOc1ccc(C(=O)N[C@@H](Cc2ccccc2)C(=O)N[C@H](CO)Cc2ccccc2)cc1 [Example 77] is below 200 µg/mL. Could you check?
## Result 1

## Task Hello, I'm reviewing records and need to know if TC50 of CCCCOc1ccc(C[C@H](NC(=O)[C@H](Cc2ccccc2)NC(=O)c2ccccc2)C(=O)OC)cc1 [Example 72] is below 200 µg/mL. Could you check?
## Result -1

## Task Hello, I'm reviewing records and need to know if TC50 of Cc1ccc(C(=O)N[C@@H](Cc2ccc(O)cc2)C(=O)N[C@H](CO)Cc2ccccc2)cc1 [Example 26] is below 200 µg/mL. Could you check?
## Result -1

## Task Hello, I'm reviewing records and need to know if TC50 of COC(=O)[C@H](Cc1ccccc1)NC(=O)[C@H](Cc1ccccc1)NC(=O)c1ccc(OCCN(C)C)cc1 [Example 78] is below 200 µg/mL. Could you check?
## Result -1

## Task Hello, I'm reviewing records and need to know if TC50 of O=C(N[C@@H](Cc1ccccc1)C(=O)N[C@H](CO)Cc1ccccc1)c1ccccc1 [Example 02] is below 200 µg/mL. Could you check?
## Result -1

## Task Hello, I'm reviewing records and need to know if TC50 of COC(=O)[C@H](Cc1ccccc1)NC(=O)[C@H](Cc1ccc(O)cc1)NC(=O)c1ccccc1Cl [Example 23] is below 200 µg/mL. Could you check?
## Result -1

## Task Hello, I'm reviewing records and need to know if TC50 of CC(=O)OC[C@H](Cc1ccccc1)NC(=O)[C@H](Cc1ccccc1)NC(=O)c1ccccc1 [Example 55] is below 200 µg/mL. Could you check?
## Result 1

## Task Hello, I'm reviewing records and need to know if TC50 of COc1ccc(C[C@H](NC(=O)[C@H](Cc2ccccc2)NC(=O)c2ccccc2)C(=O)[O-])cc1.[Na+] [Example 79] (Bz-Phe-Tyr(Me)-OH) is below 200 µg/mL. Could you check?
## Result 1

## Task Hello, I'm reviewing records and need to know if TC50 of O=C(O)CCC(=O)OC[C@H](Cc1ccccc1)NC(=O)[C@H](Cc1ccccc1)NC(=O)c1ccccc1 [Example 56] is below 200 µg/mL. Could you check?
## Result -1

## Task Hello, I'm reviewing records and need to know if TC50 of CCC(=O)Nc1ccc(C(=O)N[C@@H](Cc2ccccc2)C(=O)N[C@@H](Cc2ccccc2)C(=O)OC)cc1 [Example 37] ({Propionyl-4Abz}-Phe-Phe-OMe) is below 200 µg/mL. Could you check?
## Result 1

## Task Hello, I'm reviewing records and need to know if TC50 of O=C(N[C@@H](Cc1ccccc1)C(=O)N[C@H](CO)Cc1ccccc1)c1ccccc1Cl [Example 08] is below 200 µg/mL. Could you check?
## Result 1

## Task Hello, I'm reviewing records and need to know if TC50 of COC(=O)[C@H](Cc1ccccc1)NC(=O)[C@H](Cc1ccc(O)cc1)NC(=O)c1ccc(F)cc1 [Example 25] is below 200 µg/mL. Could you check?
## Result -1

## Task Hello, I'm reviewing records and need to know if TC50 of COC(=O)[C@H](Cc1ccccc1)NC(=O)[C@H](Cc1ccccc1)NC(=O)c1cccc(C)c1 [Example 09] is below 200 µg/mL. Could you check?
## Result -1

## Task Hello, I'm reviewing records and need to know if TC50 of CCC(=O)Nc1ccc(C[C@H](NC(=O)[C@H](Cc2ccccc2)NC(=O)c2ccccc2)C(=O)OC)cc1 [Example 64] (Bz-Phe-[Phe(4-NH2)](Propionyl)-OMe) is below 200 µg/mL. Could you check?
## Result 1

## Task Hello, I'm reviewing records and need to know if TC50 of COC(=O)[C@H](Cc1ccc(O)cc1)NC(=O)[C@H](Cc1ccc([N+](=O)[O-])cc1)NC(=O)c1ccc(C)cc1 [Example 18] is below 200 µg/mL. Could you check?
## Result 1

## Task Hello, I'm reviewing records and need to know if TC50 of COC(=O)[C@H](Cc1ccccc1)NC(=O)[C@H](Cc1ccccc1)NC(=O)c1ccccc1 [Example 01] (Bz-Phe-Phe-OMe) is below 200 µg/mL. Could you check?
## Result -1

## Task Hello, I'm reviewing records and need to know if TC50 of CCC(=O)Nc1ccc(C[C@H](NC(=O)c2ccc(Cl)cc2)C(=O)N[C@@H](Cc2ccccc2)C(=O)OC)cc1 [Example 70] is below 200 µg/mL. Could you check?
## Result 1
